- TESTED TARGET: human ether-à-go-go-related gene (hERG) potassium channel (human, UniProt Q12809)
- Sequence (Q12809 whole entry, looked up): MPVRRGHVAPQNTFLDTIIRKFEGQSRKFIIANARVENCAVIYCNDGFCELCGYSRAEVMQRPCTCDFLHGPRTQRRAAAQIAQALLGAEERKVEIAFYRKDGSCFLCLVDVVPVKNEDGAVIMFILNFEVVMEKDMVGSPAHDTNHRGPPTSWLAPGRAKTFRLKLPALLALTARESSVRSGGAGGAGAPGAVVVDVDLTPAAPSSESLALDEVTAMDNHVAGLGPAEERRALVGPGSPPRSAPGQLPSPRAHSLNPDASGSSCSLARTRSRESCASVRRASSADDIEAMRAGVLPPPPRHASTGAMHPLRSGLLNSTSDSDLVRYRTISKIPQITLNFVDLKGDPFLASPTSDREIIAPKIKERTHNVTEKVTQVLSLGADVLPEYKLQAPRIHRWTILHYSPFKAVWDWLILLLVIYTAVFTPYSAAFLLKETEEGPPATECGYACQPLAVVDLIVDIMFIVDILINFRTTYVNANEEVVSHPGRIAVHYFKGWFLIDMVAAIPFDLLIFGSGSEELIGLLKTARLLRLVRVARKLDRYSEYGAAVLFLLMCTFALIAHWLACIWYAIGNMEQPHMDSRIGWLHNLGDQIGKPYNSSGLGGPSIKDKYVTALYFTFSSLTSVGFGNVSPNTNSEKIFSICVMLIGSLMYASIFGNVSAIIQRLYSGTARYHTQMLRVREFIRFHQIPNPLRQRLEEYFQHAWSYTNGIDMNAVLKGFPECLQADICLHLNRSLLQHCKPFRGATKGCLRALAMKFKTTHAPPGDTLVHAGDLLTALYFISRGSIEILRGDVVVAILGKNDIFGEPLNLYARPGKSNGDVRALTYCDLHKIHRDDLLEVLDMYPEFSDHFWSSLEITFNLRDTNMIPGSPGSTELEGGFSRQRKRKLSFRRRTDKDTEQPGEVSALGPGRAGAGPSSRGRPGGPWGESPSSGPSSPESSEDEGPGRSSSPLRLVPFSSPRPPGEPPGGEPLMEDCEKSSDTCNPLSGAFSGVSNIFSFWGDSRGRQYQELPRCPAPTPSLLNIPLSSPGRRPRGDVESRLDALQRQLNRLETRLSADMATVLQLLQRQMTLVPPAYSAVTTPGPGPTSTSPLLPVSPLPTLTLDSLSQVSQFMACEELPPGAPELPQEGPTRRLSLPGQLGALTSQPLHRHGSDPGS
- METHOD SUMMARY: primary screen, population patch clamp on CHO cells stably expressing hERG; higher = less effect of the substance
About 14,000 (4.5%) of roughly 310,000 compounds showed an effect of 50% or more. The effect is printed as a negative number. For the sample, strong results were picked, then their nearest neighbours and some compounds at random.
RECORDED ENDPOINT: hERG current change (%, negative = inhibition) at 10uM (%)
I only need the number, in %, no unit after it.

>  <COMPOUND>
CCCOc1ccc(C(O)(CCC)CCN2CCCCC2)cc1 (stereo not shown)

>  <TESTED TARGET>
human ether-à-go-go-related gene (hERG) potassium channel (human, UniProt Q12809)

>  <MEAS VALUE>
-56.1

$$$$
>  <COMPOUND>
CCCCOc1ccc(C(O)(CCC)CCN2CCOCC2)cc1 (stereo not shown)

>  <TESTED TARGET>
human ether-à-go-go-related gene (hERG) potassium channel (human, UniProt Q12809);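 note: peak tail current of the secondary pulse compared with the same well before compound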

>  <MEAS VALUE>
-51.2

$$$$
>  <COMPOUND>
COc1ccc(-n2ncc3c2CC(C)(C)CC3NC(=O)CSc2ccccn2)cc1 (stereo not shown)

>  <TESTED TARGET>
human ether-à-go-go-related gene (hERG) potassium channel (human, UniProt Q12809);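 note: peak tail current of the secondary pulse compared with the same well before compound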

>  <MEAS VALUE>
-68

$$$$
>  <COMPOUND>
CCCCC(O)(CCN1CCOCC1)c1ccc(Cl)cc1.Cl (stereo not shown)

>  <TESTED TARGET>
human ether-à-go-go-related gene (hERG) potassium channel (human, UniProt Q12809);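 note: peak tail current of the secondary pulse compared with the same well before compound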

>  <MEAS VALUE>
-66.5

$$$$
>  <COMPOUND>
CC1(C)Cc2c(cnn2-c2ccc(F)cc2)C(NC(=O)C2=NNC(=O)CC2)C1 (stereo not shown)

>  <TESTED TARGET>
human ether-à-go-go-related gene (hERG) potassium channel (human, UniProt Q12809);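 note: peak tail current of the secondary pulse compared with the same well before compound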

>  <MEAS VALUE>
-68.4

$$$$

// query # lookup: hERG current change (%, negative = inhibition) at 10uM of COc1ccc(-n2ncc3c2CC(C)(C)CC3NC(=O)c2c(C)cc(=O)oc2C)cc1 (stereo not shown)
// result -51.1

// query Query COc1ccc(-n2ncc3c2CC(C)(C)CC3NC(=O)Cc2nonc2C)cc1 (stereo not shown) next
// result 3.4

// query Query COc1ccc(-n2ncc3c2CC(C)(C)CC3NC(=O)CCc2c(C)noc2C)cc1 (stereo not shown) next
// result -21.7

// query Query C=CCCC(=O)NC1CC(C)(C)Cc2c1cnn2-c1ccc(OC)cc1 (stereo not shown) next
// result -46

// query Query CCCCOc1ccc(C(C)(O)CCN2CCOCC2)cc1 (stereo not shown) next
// result -2.97
